peptide exchange yield values, listed per item
target: HLA-A*24 (human); assay: UV-ligand exchange ELISA

| binder | peptide exchange yield |
| --- | --- |
| QYSSVFKSL [peptide SEQ ID No 216] | > 75% |
| HYPPVQVLF [peptide SEQ ID No 285] | 50 to 75% |
| HYSQELSLLYL [peptide SEQ ID No 158] | > 75% |

Query string: I have this binder here, TFSVSSHLF [peptide SEQ ID No 222] , and I need its recorded peptide exchange yield.
Result string: 50 to 75%

Query string: Form field: reported peptide exchange yield of VYTLDIPVL [peptide SEQ ID No 160]
Result string: > 75%

Query string: Param item = EYSLFPGQVVI [peptide SEQ ID No 197] ; retrieve measured peptide exchange yield.
Result string: 50 to 75%

Query string: So what's the measured peptide exchange yield for this one? YYGPSLFLL [peptide SEQ ID No 200]
Result string: 50 to 75%

Query string: What value of measured peptide exchange yield is listed for LYLKLWNLI [peptide SEQ ID No 214] ?
Result string: 50 to 75%
